- System: MDA-MB-231 breast
- method_description: NCI-60 one-dose screen, 48 h (100 = growth as untreated, 0 = no growth, -100 = all killed)
- experimental_parameters: 10 µM unless noted
About 83,000 compounds went through this panel and 20% of them were active in at least one assay; those are over-represented in the sample as a whole.
Label condition met when growth is at or above 90%; anything below gets condition not met.

# count of solved cases: 3
>  <compound>
CC[C@H](C)[C@H](NC(=O)[C@H]1CCCCN1C)C(=O)N(C)[C@H](C[C@@H](OC(C)=O)c1nc(C(=O)N[C@@H](Cc2ccccc2)C[C@H](C)C(=O)O)cs1)C(C)C

>  <system_name>
MDA-MB-231 breast

>  <label_class>
condition not met

$$$$
>  <compound>
O=c1[nH]c(=O)[nH]c(=O)[nH]1

>  <system_name>
MDA-MB-231 breast

>  <label_class>
condition met

$$$$
>  <compound>
CCC1(NC(=O)c2cc(F)c(F)c(F)c2F)C(=O)NC(=O)N(C(C)C)C1=O (stereo not drawn)

>  <system_name>
MDA-MB-231 breast

>  <label_class>
condition not met

$$$$

Entry `Cn1cc(C(=O)C[n+]2ccccc2)c2ccccc21` : is its growth no less than 90%?
condition met

Now the compound `CC1=C(C)C(=O)O[C@@H]([C@](C)(O)[C@]2(O)CC[C@@]3(O)[C@@H]4C[C@H]5O[C@]56CC=CC(=O)[C@]6(C)[C@H]4CC[C@]23C)C1`
condition not met

Now consider O=C1c2ccccc2C(=O)N1N1CC1c1ccccc1 (stereo not drawn) .
condition met

// next record `NC(=O)Oc1cc(OC(N)=O)cc(N(CCCl)CCCl)c1`
condition met

----------
- Test system: OVCAR-5 ovarian
- method_description: NCI-60 one-dose screen, 48 h
- experimental_parameters: 10 µM unless noted
Compounds without any hit were thinned out: in the full panel of roughly 83,000, 20% have a hit. The source made the active and inactive calls. The calls were made as follows: active = growth percent below 10; inactive = the rest.
One label from this list, please: active, inactive

Consider the worked cases shown below.
>  <compound>
CCC1(NC(=O)c2cc(F)c(F)c(F)c2F)C(=O)NC(=O)N(C(C)C)C1=O (stereo unspecified)

>  <label_class>
inactive

$$$$
>  <compound>
Nc1cccnc1

>  <label_class>
inactive

$$$$

What did this assay record as the result for O=P1(N(CCCl)CCCl)NCCCO1 (stereo unspecified) ?
inactive

Next record, please: `COc1ccc(O)c2c(=O)c3c(OC)cc4c(c3oc12)[C@@H]1C=CO[C@@H]1O4`
inactive

Please do the same for `CN1CCN(c2ccc(Cl)cc2)CC1` as well.
inactive

Try this compound next: `C[C@@]12CCCc3coc(c31)C(=O)c1cc3c(cc12)C(=O)C1=C(NCCS1(=O)=O)C3=O`
active

----------
- Tested on: OVCAR-4 ovarian
- method_description: NCI-60 one-dose screen, 48 h (100 = growth as untreated, 0 = no growth, -100 = all killed)
- experimental_parameters: 10 µM unless noted
Compounds without any hit were thinned out: in the full panel of roughly 83,000, 20% have a hit.
measurement_kind: growth (%)
Enter your answer as a number in %; do not include the unit.

Answered cases to consult:
>  <compound>
C[C@]12CC[C@H]3[C@@H](C[C@@H]4SC(Nc5ccccc5)=N[C@@]45C/C(=N/O)CC[C@]35C)[C@@H]1CCC2=O

>  <units_text>
%

>  <growth>
88

$$$$
>  <compound>
Cc1nc2ccccc2c(=O)n1-c1ccccc1F

>  <units_text>
%

>  <growth>
99.3

$$$$
>  <compound>
COc1ccc(N)cc1N

>  <units_text>
%

>  <growth>
97.6

$$$$
>  <compound>
CN1C2CCC1[C@@H](COC(=O)c1ccccc1)[C@@H](O)C2 (stereo partly specified)

>  <units_text>
%

>  <growth>
103

$$$$
>  <compound>
CC[C@H](C)[C@H](NC(=O)C12CC(NC)(C1)C2)C(=O)N(C)[C@H](C[C@@H](OC(C)=O)c1nc(C(=O)N[C@@H](Cc2ccccc2)C[C@H](C)C(=O)OC)cs1)C(C)C

>  <units_text>
%

>  <growth>
50.3

$$$$

I would be grateful if you could share the reported growth for `Nc1cccnc1` .
129

From: PubChem BioAssay (NCI)
